Assay: qHTS to identify inhibitors of the type 1 interferon - major histocompatibility complex class I in skeletal muscle: primary screen against the NCATS Mechanism Interrogation Plate v5.0 (MIPE) Libary (AID 1347411); also: nearly all actives have a fitted effect of over 65% in size
Settings: iHSKM cells + IFN-b, HiBiT-tagged MHC-I luminescence, 24 h; series mostly up to 45.8 µM
Text: Assay Submitter (PI): Travis B. Kinder Ph.D. & James Inglese Ph.D. Assay Development and Screening Technology Laboratory (ADST) National Center for Advancing Translational Sciences (NCATS), Rockville, MD National Institute of Health (NIH), Bethesda, Maryland […] 7; Detector; 5 sec; Measure luminescence with ViewLux 1430 Ultra HTS (Perkin Elmer). […]
Inconclusive results are not listed. The source made the active and inactive calls. Calls follow the shape of the dose curve; as a rule, active = well fitted inhibition curve with a large enough effect; inconclusive = small, poorly fitted or top-dose-only effect; inactive = no such curve, though single readings can be large or run the other way. Where a SMILES comes first, the peptide text is derived from it. [ ]: non-standard residue; d: D form. The star is where a group is joined. Benzoyl(4-tBu) = CC(C)(C)c1ccc(C(=O)*)cc1; Lys(Et2) = CCN(CC)CCCC[C@H](N)C(=O)O
Outcome codes: active, inactive

{"COMPOUND": "C[C@H](NC(=O)CCC(F)(F)F)C(=O)N[C@@H]1C(=O)N(CCO)c2ncccc2-c2ccccc21", "ANSWER_LABEL": "inactive"}
{"COMPOUND": "Cc1c[nH]c2nc(Nc3ccc(N4CCN(C)CC4)c(F)c3)nc(-c3cccc(CC#N)c3)c12", "ANSWER_LABEL": "active"}
{"COMPOUND": "CN(C(=O)CNC(=O)/C=C/c1cccc(Cl)c1)C1CCS(=O)(=O)CC1", "ANSWER_LABEL": "inactive"}
{"COMPOUND": "CC(=O)N[C@H]1[C@H](O[C@@H]2c3ccc(c(Cl)c3)Oc3cc4cc(c3O[C@@H]3O[C@H](CO)[C@@H](O)[C@H](O)[C@H]3NC(=O)CCCCCCCC(C)C)Oc3ccc(cc3Cl)C[C@H]3NC(=O)[C@H](N)c5ccc(O)c(c5)Oc5cc(O)cc(c5)[C@H](NC3=O)C(=O)N[C@H]4C(=O)N[C@H]3C(=O)N[C@@H]2C(=O)N[C@@H](C(=O)O)c2cc(O)cc(O[C@H]4O[C@H](CO)[C@@H](O)[C@H](O)[C@@H]4O)c2-c2cc3ccc2O)O[C@H](CO)[C@@H](O)[C@@H]1O", "ANSWER_LABEL": "inactive"}
{"COMPOUND": "CC[C@@]1(O)C(=O)OCc2c1cc1n(c2=O)Cc2c-1nc1cc(F)c(C)c3c1c2[C@@H](N)CC3", "ANSWER_LABEL": "active"}
{"COMPOUND": "[2H]c1nc(C)nc([2H])c1-c1cc(NC[C@@H](C)c2cccc3c(C(=O)NC)ccnc23)ncn1", "ANSWER_LABEL": "inactive"}
{"COMPOUND": "O=C1NC(=O)[C@@H](c2cn3c4c(cccc24)CCC3)[C@@H]1c1c[nH]c2ccccc12", "ANSWER_LABEL": "inactive"}
{"COMPOUND": "C[C@H]1[C@H](C)CC[C@]2(C(=O)O)CC[C@]3(C)C(=CC[C@@H]4[C@@]5(C)CC[C@H](O)C(C)(C)[C@@H]5CC[C@]43C)[C@H]12", "ANSWER_LABEL": "inactive"}
{"COMPOUND": "C=CC(=O)N1C[C@H](Nc2ncnc3[nH]ccc23)CC[C@@H]1C", "ANSWER_LABEL": "inactive"}
{"COMPOUND": "CCN(CC)CCCC[C@H](NC(=O)[C@H](CC(C)C)NC(=O)[C@H](C)NC(=O)[C@H](Cc1ccccc1)NC(=O)c1ccc(C(C)(C)C)cc1)C(=O)N[C@@H](CO)C(=O)OC ({Benzoyl(4-tBu)}-FAL[Lys(Et2)]S-OMe)", "ANSWER_LABEL": "inactive"}
{"COMPOUND": "C=CC(=O)N[C@H]1CCOC[C@H]1Nc1ncc2cc(-c3c(Cl)c(OC)cc(OC)c3Cl)ccc2n1", "ANSWER_LABEL": "inactive"}
{"COMPOUND": "CCc1cc2c(c(OCC(F)(F)F)c(C(=O)NC3CCN(C(=O)CO)CC3)n2C)c(=O)n1CC(=O)c1ccccc1", "ANSWER_LABEL": "inactive"}
{"COMPOUND": "CC[C@@]1(O)C(=O)OCc2c1cc1n(c2=O)Cc2c-1nc1ccccc1c2CCNC(C)C", "ANSWER_LABEL": "active"}
{"COMPOUND": "Fc1cccc(-n2cnc3c(NCc4nc5c(F)c(F)ccc5[nH]4)nc(N4CCOCC4)nc32)c1", "ANSWER_LABEL": "active"}
